System: IGROV1 ovarian
Procedure Details: NCI-60 one-dose screen, 48 h
Condition: 10 µM unless noted
About 83,000 compounds went through this panel and 20% of them were active in at least one assay; those are over-represented in the sample as a whole. The source made the active and inactive calls. Rule for the calls: active = growth percent below 10; inactive = the rest.
Pick one: active, inactive

Before answering, review these 6 worked examples.
CCN(CC)c1ccnc(CNCCSC(c2ccccc2)(c2ccccc2)c2ccc(OC)cc2)c1 ... active
O=C(O)c1cccc(-c2ccc(/C=N/NC(=O)c3[nH]c4ccc(Br)cc4c3-c3ccccc3)o2)c1 ... inactive
O=C1NC(=O)c2c1c1c3cc(Br)ccc3[nH]c1c1oc3ccc(F)cc3c21 ... active
O=C(O)c1ccc(-c2ccc(/C=N/NC(=O)c3[nH]c4ccc(Br)cc4c3-c3ccccc3)o2)cc1 ... inactive
COc1ccc([C@H](C)Nc2nc(Cl)nc3ccccc23)cc1 ... inactive
COc1ccccc1C(=O)NN1C(=O)/C(=C/C2=Cc3ccccc3OC2)SC1=S ... inactive

Assay result, entry COc1ccc(C2=NN(c3ccccc3)C(c3ccc(OC)c(OCc4ccccc4)c3)C2)cc1OC (stereo unspecified) — outcome? inactive

Fill in: this test's call for `O=C(COc1ccc2c(c1)CCCC(=O)N2)NCc1ccccc1` is ___ inactive

For `Clc1ccc(-c2ccc(OCCCN3CCN(c4ccncc4)CC3)cc2)cc1` , which call appears in the assay record? inactive

----------
Tested on: BT-549 breast
Procedure Details: NCI-60 one-dose screen, 48 h
Condition: 10 µM unless noted
This is part of a sample that, as a whole, favours compounds with a hit. Of some 83,000 tested, about 20% had one in any assay. Calls of active or inactive are those of the source. Rule for the calls: active = growth percent below 10; inactive = the rest.
Give one outcome, nothing more. List: active, inactive

COc1ccc(C(=O)/C=C/c2ccc(Oc3nc(Nc4ccc(F)cc4)nc(N(C)C)n3)c(OC)c2)cc1 ... active
O=c1oc2ccccc2cc1-c1csc(N2N=C(c3ccccc3)CC2c2ccc(N3CCOCC3)cc2)n1 (stereo not drawn) ... inactive
COc1c(F)ccc(C(=O)Nc2ccc3nc(NC(=O)C4CCCN(S(=O)(=O)C5CC5)C4)sc3c2)c1F (stereo not drawn) ... active
COc1ccc(NC(=O)[C@@H](N)Cc2ccccc2)cc1C(=O)Nc1cccc(C2CC(=O)c3c(cc(OC)c(OC)c3OC)O2)c1 (stereo partly drawn) ... inactive
CNC(=O)c1cc(Oc2ccc3nc(NC(=O)Nc4cccc(OC(F)(F)F)c4)sc3c2)ccn1 ... active

Returns: the outcome recorded for `O=C(COc1ccc(NC(=O)Nc2ccc(Cl)c(Cl)c2)cc1)N=Nc1c(O)[nH]c2ccc(Br)cc12` in this assay. active

How was `COc1ccc(-c2ccnc(SCc3cc4ccccc4[nH]c3=O)n2)cc1OC` classified in this test? active

Query: recorded result category for `Cc1ccc(S(=O)(=O)c2nc(S(=O)(=O)c3ccc(C)cc3)c(N3CCC(O)CC3)s2)cc1` in this test inactive

----------
Test system: UACC-257 melanoma
Procedure Details: NCI-60 one-dose screen, 48 h (100 = growth as untreated, 0 = no growth, -100 = all killed)
Condition: 10 µM unless noted
This is part of a sample that, as a whole, favours compounds with a hit. Of some 83,000 tested, about 20% had one in any assay.
Value Kind: growth (%)
Give just the numeric value; % need not be written.

Worked examples follow.
O=C(c1ccc(Cl)cc1)c1ccc(OCCCN2CCN(c3ccncc3)CC2)cc1 ... 42.4
Cc1cc(C)cc(C(=O)Nc2cccc(-c3cn(-c4ccc(S(N)(=O)=O)cc4)nn3)c2)c1 ... 76.2
O=C(/C=C/c1ccc(O)c(O)c1)NC1CCOC1O (configuration not stated) ... 102
Cc1occc1C(=O)NN1C(=O)/C(=C/C=C/c2ccc([N+](=O)[O-])o2)SC1=S ... -44.5
COc1ccc(C(=O)/C=C/c2cccc(Cl)c2)cc1S(N)(=O)=O ... -29.6

Query (compound): `Cn1cc(-c2cc3nc(-c4c[nH]c5ccc(Cl)cc45)cc(N)n3n2)c2ccccc21` ; field requested: growth -84.8

Which growth reading was recorded for the compound Cc1ccc([C@H]2C(C(=O)c3ccc(Cl)cc3)C3(N[C@@H]2c2ccccc2)C(=O)Nc2ccccc23)cc1 (some centres not stated) ? 26.9

What growth value was documented for this compound, `N#Cc1c(-c2cccc(Cl)c2Cl)cc(-c2ccc3ccccc3c2)[nH]c1=O` ? 94.2

Would you mind telling me what growth value was observed for `O=C(Cn1c(/C=C/c2ccccc2)nc2ccccc2c1=O)Nc1ccccc1` ? 104

If you can, please state the reported growth value of `Cc1ccc(C(=O)CSc2nc3ccc(C)cc3c(=O)n2-c2ccc(F)cc2)cc1` . 85.9

growth for C=C1CCC2C3(C)COC(c4cccc(F)c4)OC3CCC2(C)C1C/C=C1/C(=O)OCC1O (configuration not stated) ? -28.8

Name the recorded growth for `COc1ccc(-c2c(Nn3cnnn3)no[n+]2[O-])cc1` . 71.8

----------
growth values, listed per item
Tested on: PC-3 prostate
Procedure Details: NCI-60 one-dose screen, 48 h (100 = growth as untreated, 0 = no growth, -100 = all killed)
Condition: 10 µM unless noted
Procedure: Growth inhibition of the PC-3 human tumor cell line is measured as a screen for anti-cancer activity. Cells are grown in 96 well plates and exposed to the test compound for 48 hours. Compounds are tested at a single concentration, which is 10^-5 M for most compounds. The reported endpoint is percent growth (GI% or GIPRCNT), where numbers from 0 - 100% represent growth inhibition, and numbers from -100% - 0 represent cell death. For example, a value of 40 represents 60% growth inhibition. […]
About 83,000 compounds went through this panel and 20% of them were active in at least one assay; those are over-represented in the sample as a whole. Calls of active or inactive are those of the source. The calls were made as follows: active = growth percent below 10; inactive = the rest.

CC(=O)Nc1ccc(C(=O)NC(=S)Nc2ccc(S(N)(=O)=O)cc2)cc1 ... 97.9% (inactive)
Brc1ccc(N/N=C/c2c[nH]c3ccc(Br)cc23)nc1 ... -29.6% (active)
Cc1ccc(C(=O)C(c2c[nH]c3ccccc23)c2c[nH]c3ccccc23)cc1 ... 17.1% (inactive)

Next, consider the following compound.
Consider the compound shown here: Cc1ccc([C@H]2C(C(=O)c3ccc(Cl)cc3)C3(N[C@@H]2c2ccccc2)C(=O)Nc2ccccc23)cc1 (some centres undefined) What is its recorded growth? 2.35% (active)

----------
System: SK-MEL-5 melanoma
Procedure Details: NCI-60 one-dose screen, 48 h
Condition: 10 µM unless noted
The panel holds about 83,000 compounds, 20% with a hit somewhere; the sample as a whole holds those more often. The source made the active and inactive calls. Rule for the calls: active = growth percent below 10; inactive = the rest.
Outcomes you can answer with include only these: active, inactive

GET /call?item= `O=[N+]([O-])c1ccc(/C=C/c2nc3ccccc3n3c(=S)[nH]nc23)cc1` returns the recorded outcome of this test. inactive

Recorded test call requested for COc1cc2c(c(OC)c1OC)C(=O)CC(c1cccc(NC(=O)c3cc(NC(=O)[C@H](C)N)ccc3Cl)c1)O2 (some centres undefined) inactive

Dear colleague, could you share the recorded outcome for `Cn1cc(-c2cc3nc(-c4cn(C)c5ncccc45)cc(N)n3n2)c2cc(Cl)ccc21` when you have a moment? active

What is the recorded call for this compound in the test? `Cc1ccc(C(=O)CSc2nc3ccc(C)cc3c(=O)n2-c2ccc(F)cc2)cc1` inactive

----------
Test system: MCF7 breast
Procedure Details: NCI-60 one-dose screen, 48 h (100 = growth as untreated, 0 = no growth, -100 = all killed)
Condition: 10 µM unless noted
This is part of a sample that, as a whole, favours compounds with a hit. Of some 83,000 tested, about 20% had one in any assay.
# growth annotations
Reply with just the number (in %).

Here's what some known entries look like.
Cc1ccc(NC(=O)CN2CCN(c3ncnc4c3cnn4-c3ccccc3)CC2)cc1 ... 74.2
CCN(CC)C(=O)N/C(N)=N/c1nc2ccccc2s1 ... 37.6
N#Cc1ccc(/C=N/NC(=O)c2[nH]c3ccc(Br)cc3c2-c2ccccc2)o1 ... 7.95
C#CCOc1cc(N(CC)CC)ccc1C(C(=O)NC(C)(C)C)N(C(=O)C1CCc2cc(F)ccc2O1)c1ccccc1F (stereo unspecified) ... 16.6
COc1ccc(C(=O)/C=C/c2c(F)cccc2Cl)cc1S(N)(=O)=O ... -4.58

growth for `NS(=O)(=O)c1ccc(-n2cc(-c3cccc(NC(=O)c4cc(Cl)cc(Cl)c4)c3)nn2)cc1` ? 37.1

----------
Test system: CAKI-1 renal
Procedure Details: NCI-60 one-dose screen, 48 h (100 = growth as untreated, 0 = no growth, -100 = all killed)
Condition: 10 µM unless noted
Compounds without any hit were thinned out: in the full panel of roughly 83,000, 20% have a hit. Calls of active or inactive are those of the source. How the source made its calls: active means growth percent below 10; inactive means the rest.
Each item that follows carries a reported growth.

COc1ccc2c(c1)c(-c1cc3nc(-c4cn(C)c5ncccc45)cc(N)n3n1)cn2C ... -35.9% (active)
CC(C)CSc1nc(NCCc2c[nH]c3ccccc23)c(C#N)c(-c2ccc(Cl)cc2)n1 ... 50.1% (inactive)
Cc1c(C(=O)NNC(=O)c2ccc(Cl)cc2)nnn1-c1ccc(Br)cc1 ... 87.9% (inactive)

Now look at this one.
Requested read-out: growth. Entry: `c1ccc(-c2csc(Nc3cccc(Nc4nc(-c5ccccc5)cs4)c3)n2)cc1` 34.9% (inactive)

Taken from PubChem BioAssay (NCI).
